# key: entry, value: fraction unbound
# procedure text: Protein binding in human plasma
# Format: ADME, cell-free
# particulars: read-out: PPB

>>> value_measured("O=C(NCC1CCC(F)(F)CC1)c1c(Cl)ccc2nc(N3CC[C@H](F)C3)ccc12")
"0.03 to 0.1"

Now for the compound whose fraction unbound we want.
INPUT: Read off the recorded fraction unbound for O=C(NCC1(O)CCCC(F)(F)C1)c1c(Cl)ccc2nc(N3CC[C@H](F)C3)ccc12 (some centres not stated)
OUTPUT: 0.03 to 0.1

* * *

# Tested on: MDR
# procedure text: Efflux ratio of apparent permeability in MDCK cells expressing MDR
# Format: ADME, cell-based, Canis lupus familiaris
# particulars: dog, MDCK-MDR1
experimental endpoint: efflux ratio
I only need the number, thanks.

Examples from the recorded data:
>>> value_measured("O=C(NCC1CCCC(F)(F)C1)c1c(Cl)ccc2nc(N3CC[C@@H](F)C3)ccc12 (stereo partly drawn)")
1.8
>>> value_measured("CN(C)[C@H]1CCN(c2ccc3c(C(=O)NCC4CCC(F)(F)CC4)c(Cl)ccc3n2)C1")
6.9

INPUT: Report measured efflux ratio; entry is O=C(NC[C@]1(O)CCCC(F)(F)C1)c1c(Cl)ccc2nc(N3CC[C@@H](F)C3)ccc12
OUTPUT: 8.7

INPUT: Look up and report measured efflux ratio for this entry: O=C(NCC1CCC(F)(F)CC1)c1c(Cl)ccc2nc(N3CCC(NCCO)C3)ccc12 (stereo not drawn)
OUTPUT: 114

INPUT: Give the reported value of efflux ratio for this record: C[C@@H]1CCC[C@@](O)(CNC(=O)c2c(Cl)ccc3nc(N4CC[C@@H](C(C)(C)O)C4)ccc23)C1
OUTPUT: 34

INPUT: Using the record for O=C(NCC1CCC(F)(F)CC1)c1c(Cl)ccc2nc(N3CCC(CCO)C3)ccc12 (stereo not drawn) , state its measured efflux ratio.
OUTPUT: 3.8

INPUT: Give me measured efflux ratio, please, for this compound: O=C(NCC1(O)CCCC(F)(F)C1)c1c(Cl)ccc2nc(N3CC[C@H](F)C3)ccc12 (stereo partly drawn)
OUTPUT: 6.3

INPUT: Please look at this compound and report its efflux ratio: C[C@H]1CCC[C@@](O)(CNC(=O)c2c(Cl)ccc3nc(N4CC[C@@H](F)C4)ccc23)C1
OUTPUT: 4.3

* * *

Documented clearance across a set of molecules
# procedure text: Clearance in mouse at 0.2 mg/kg, iv or 0.5 mg/kg, po
# Type: ADME, organism-based
# particulars: in vivo
Kindly provide the numeric value in mL/min/kg only, without the unit symbol.

>>> value_measured("O=C(NCC1(O)CCCC(F)(F)C1)c1c(Cl)ccc2nc(N3CC[C@H](F)C3)ccc12 (some centres not stated)")
36.8

INPUT: Entry O=C(NCC1CCC(F)(F)CC1)c1c(Cl)ccc2nc(N3CC[C@H](F)C3)ccc12 needs its clearance filled in; supply it.
OUTPUT: 69.8

* * *

# system tested: P2X purinoceptor 7 (Mus musculus)
# Sequence (Q9Z1M0 whole entry): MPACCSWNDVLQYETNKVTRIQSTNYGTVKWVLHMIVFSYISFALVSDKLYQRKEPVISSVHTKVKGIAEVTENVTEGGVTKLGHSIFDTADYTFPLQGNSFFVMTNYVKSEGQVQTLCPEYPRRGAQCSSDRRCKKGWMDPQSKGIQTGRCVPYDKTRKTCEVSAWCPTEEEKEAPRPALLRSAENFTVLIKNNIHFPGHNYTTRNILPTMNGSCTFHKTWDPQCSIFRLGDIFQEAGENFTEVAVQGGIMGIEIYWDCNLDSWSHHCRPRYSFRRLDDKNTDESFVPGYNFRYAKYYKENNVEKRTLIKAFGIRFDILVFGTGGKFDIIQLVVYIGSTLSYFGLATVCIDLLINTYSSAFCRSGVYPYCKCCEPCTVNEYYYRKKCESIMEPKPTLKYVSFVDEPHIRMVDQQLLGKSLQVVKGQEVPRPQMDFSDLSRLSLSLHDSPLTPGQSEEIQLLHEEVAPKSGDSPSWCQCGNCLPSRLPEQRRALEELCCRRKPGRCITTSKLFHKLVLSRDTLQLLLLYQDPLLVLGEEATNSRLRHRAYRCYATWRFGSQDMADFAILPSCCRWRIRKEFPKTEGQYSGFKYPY
# procedure text: Antagonist activity at mouse P2X7 receptor assessed as inhibition of BzATP-induced YO PRO dye uptake preincubated for 20 mins followed by YO PRO dye and BzATP addition measured after 30 mins by fluorescence assay
# Lookup of reported pIC50 keyed by entry
// scale note: pIC50 = -log10(conc_M); give the bare number

Examples from the recorded data:
>>> value_measured("C[C@@H]1CCC[C@@](O)(CNC(=O)c2c(Cl)ccc3nc(N4CCC(N(C)C)C4)ccc23)C1 (some centres not stated)")
5.70
>>> value_measured("O=C(NCC1(O)CCCC(F)(F)C1)c1c(Cl)ccc2nc(N3CC[C@H](F)C3)ccc12 (some centres not stated)")
5.17
>>> value_measured("O=C(NCC1CCCC(F)(F)C1)c1c(Cl)ccc2nc(N3CC[C@@H](F)C3)ccc12 (some centres not stated)")
5.70
>>> value_measured("O=C(NCC1CCC(F)(F)CC1)c1c(Cl)ccc2nc(N3CC[C@H](F)C3)ccc12")
5.69
>>> value_measured("C[C@H]1CCC[C@@](O)(CNC(=O)c2c(Cl)ccc3nc(N4CC[C@@H](F)C4)ccc23)C1")
5.85
>>> value_measured("O=C(NC[C@]1(O)CCCC(F)(F)C1)c1c(Cl)ccc2nc(N3CC[C@@H](F)C3)ccc12")
5.32

Please turn your attention to the following entry.
INPUT: Specify measured pIC50 for C[C@@H]1CCC[C@@](O)(CNC(=O)c2c(Cl)ccc3nc(N4CC[C@@H](C(C)(C)O)C4)ccc23)C1 .
OUTPUT: 5.43

* * *

# procedure text: Intrinsic clearance in human liver microsomes
# Format: ADME, Microsome
# particulars: read-out: CLH
// values below are reported microsomal CLint
Value expressed in µL/min/mg; do not type the unit.

Consider the reported microsomal CLint for these compounds:
>>> value_measured("O=C(NC[C@]1(O)CCCC(F)(F)C1)c1c(Cl)ccc2nc(N3CC[C@@H](F)C3)ccc12")
50
>>> value_measured("C[C@@H]1CCC[C@@](O)(CNC(=O)c2c(Cl)ccc3nc(N4CCC(N(C)C)C4)ccc23)C1 (stereo partly drawn)")
44
>>> value_measured("C[C@H]1CCC[C@@](O)(CNC(=O)c2c(Cl)ccc3nc(N4CC[C@@H](F)C4)ccc23)C1")
21
>>> value_measured("O=C(NCC1CCC(F)(F)CC1)c1c(Cl)ccc2nc(N3CC[C@@H](F)C3)ccc12")
12

INPUT: Kindly indicate its recorded microsomal CLint. Item: C[C@@H]1CCC[C@@](O)(CNC(=O)c2c(Cl)ccc3nc(N4CC[C@@H](C(C)(C)O)C4)ccc23)C1
OUTPUT: 75

INPUT: Hello, please tell me recorded microsomal CLint for this one: O=C(NCC1CCCC(F)(F)C1)c1c(Cl)ccc2nc(N3CC[C@@H](F)C3)ccc12 (stereo partly drawn)
OUTPUT: 41

INPUT: Check the records and state microsomal CLint for O=C(NCC1CCC(F)(F)CC1)c1c(Cl)ccc2nc(N3CCC(NCCO)C3)ccc12 (stereo not drawn)
OUTPUT: 17

INPUT: Identify measured microsomal CLint corresponding to CN(C)[C@@H]1CCN(c2ccc3c(C(=O)NCC4CCC(F)(F)CC4)c(Cl)ccc3n2)C1
OUTPUT: 45

INPUT: Tell me its microsomal CLint given O=C(NCC1CCC(F)(F)CC1)c1c(Cl)ccc2nc(N3CC[C@H](F)C3)ccc12 as the entry.
OUTPUT: 10

INPUT: Give the reported microsomal CLint for this compound. O=C(NCC1CCC(F)(F)CC1)c1c(Cl)ccc2nc(N3CCCC3)ccc12
OUTPUT: 87

INPUT: # return recorded microsomal CLint for entry O=C(NCC1(O)CCCC(F)(F)C1)c1c(Cl)ccc2nc(N3CC[C@H](F)C3)ccc12 (stereo partly drawn)
OUTPUT: 20

INPUT: Read off the recorded microsomal CLint for O=C(NCC1CCC(F)(F)CC1)c1c(Cl)ccc2nc(N3CCC(CCO)C3)ccc12 (stereo not drawn)
OUTPUT: 32

INPUT: Fill in microsomal CLint for record CN(C)[C@H]1CCN(c2ccc3c(C(=O)NCC4CCC(F)(F)CC4)c(Cl)ccc3n2)C1
OUTPUT: 80

* * *

# procedure text: AUC in mouse plasma at 5 mg/kg, po
# Assay type: ADME, organism-based
Listing of entries alongside the reported AUC.
Express it in ng·h/mL; write the number only.

>>> value_measured("O=C(NCC1CCC(F)(F)CC1)c1c(Cl)ccc2nc(N3CC[C@H](F)C3)ccc12")
84.7

INPUT: Annotate the compound O=C(NCC1(O)CCCC(F)(F)C1)c1c(Cl)ccc2nc(N3CC[C@H](F)C3)ccc12 (some centres not stated) with its measured AUC.
OUTPUT: 136

* * *

# procedure text: Protein binding in human plasma assessed as unbound fraction
# Assay type: ADME, cell-free
experimental endpoint: fraction unbound

>>> value_measured("O=C(NCC1(O)CCCC(F)(F)C1)c1c(Cl)ccc2nc(N3CC[C@H](F)C3)ccc12 (some centres not stated)")
0.098

INPUT: Quickly give me recorded fraction unbound for O=C(NCC1CCC(F)(F)CC1)c1c(Cl)ccc2nc(N3CC[C@H](F)C3)ccc12
OUTPUT: 0.055
